- ASSAY_SYSTEM: Histamine H2 receptor (Homo sapiens, UniProt P25021)
- Sequence (P25021 whole entry): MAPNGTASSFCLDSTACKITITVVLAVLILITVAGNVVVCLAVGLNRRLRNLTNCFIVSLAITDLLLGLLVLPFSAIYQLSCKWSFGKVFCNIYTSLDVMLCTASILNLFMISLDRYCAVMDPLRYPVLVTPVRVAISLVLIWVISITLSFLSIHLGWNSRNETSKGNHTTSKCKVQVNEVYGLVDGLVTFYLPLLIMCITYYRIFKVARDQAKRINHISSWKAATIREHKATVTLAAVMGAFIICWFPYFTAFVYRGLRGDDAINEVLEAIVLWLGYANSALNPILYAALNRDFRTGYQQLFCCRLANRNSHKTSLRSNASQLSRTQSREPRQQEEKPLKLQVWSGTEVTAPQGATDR
- PROTOCOL_DESCRIPTION: GPCRScan assay: inhibition of H2
- Parameters: radioligand conc. used [nm] 0.02 – 0.05, parental cells Stable HEK
EXPERIMENTAL_ENDPOINT: Ki (µM)
Answers are plain numbers, in µM.

Write down Ki measured for item "Cc1c(NC(=O)c2cc(C(N)=O)nc3cc(F)ccc23)c(C(F)(F)F)nn1Cc1ccc(C#N)cc1"
8.08

###

- ASSAY_SYSTEM: Histamine H1 receptor (Homo sapiens, UniProt P35367)
- Sequence (P35367 whole entry): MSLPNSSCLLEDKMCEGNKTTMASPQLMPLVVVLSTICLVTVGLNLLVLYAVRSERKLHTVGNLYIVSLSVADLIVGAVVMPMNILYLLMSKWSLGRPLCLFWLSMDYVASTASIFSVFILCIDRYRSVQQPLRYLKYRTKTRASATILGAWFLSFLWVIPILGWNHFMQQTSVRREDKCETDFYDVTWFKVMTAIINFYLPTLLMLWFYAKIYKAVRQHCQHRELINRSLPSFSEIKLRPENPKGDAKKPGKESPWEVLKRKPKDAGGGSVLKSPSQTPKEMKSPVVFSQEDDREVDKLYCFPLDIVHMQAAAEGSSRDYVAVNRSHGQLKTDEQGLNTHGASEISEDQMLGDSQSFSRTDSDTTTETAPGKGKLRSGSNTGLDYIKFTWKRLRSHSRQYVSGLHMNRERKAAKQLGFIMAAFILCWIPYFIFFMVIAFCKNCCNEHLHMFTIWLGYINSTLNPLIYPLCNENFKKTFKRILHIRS
EXPERIMENTAL_ENDPOINT: Ki (µM)
One number for each entry, in µM.

Note Ki for the compound shown: "Cc1c(NC(=O)c2cc(C(N)=O)nc3cc(F)ccc23)c(C(F)(F)F)nn1Cc1ccc(C#N)cc1"
10
